Measured On: Epac2^fl (Mus musculus, UniProt Q9EQZ6)
Assay Text: Epac activation assay, full length Epac2
Type: biochemical
Design: made in house
Condition Details: 0.3 μM compound
Quantity: kobs

> print(dat)
                                   compound                              measured.on  quantity  reported.result
1  COC1C2OP(=O)(O)OCC2OC1n1c(Sc2ccc(Cl)cc2)nc2c(N)ncnc21 [D-007, 8-pCPT-2′-O-Me-cAMP, reference compound]  Epac2^fl (Mus musculus, UniProt Q9EQZ6)      kobs     1.59e-05 s⁻¹
2  Cc1ccc(CSc2nc3c(N)ncnc3n2[C@@H]2O[C@@H]3CO[P@](O)(=S)O[C@H]3[C@H]2O)cc1  Epac2^fl (Mus musculus, UniProt Q9EQZ6)      kobs      2.9e-05 s⁻¹
3  Nc1ncnc2c1ncn2[C@@H]1O[C@@H]2COP(=O)(O)O[C@H]2[C@H]1O [cAMP, reference compound]  Epac2^fl (Mus musculus, UniProt Q9EQZ6)      kobs        2e-05 s⁻¹
4  Nc1ncnc2c1nc(SCc1ccccc1)n2[C@@H]1O[C@@H]2CO[P@](O)(=S)O[C@H]2[C@H]1O  Epac2^fl (Mus musculus, UniProt Q9EQZ6)      kobs     0.000217 s⁻¹

====

Item-by-item account of AC50
Measured On: Epac2^fl (Mus musculus, UniProt Q9EQZ6)
Sequence (Q9EQZ6 1-993 isoform Q9EQZ6-3): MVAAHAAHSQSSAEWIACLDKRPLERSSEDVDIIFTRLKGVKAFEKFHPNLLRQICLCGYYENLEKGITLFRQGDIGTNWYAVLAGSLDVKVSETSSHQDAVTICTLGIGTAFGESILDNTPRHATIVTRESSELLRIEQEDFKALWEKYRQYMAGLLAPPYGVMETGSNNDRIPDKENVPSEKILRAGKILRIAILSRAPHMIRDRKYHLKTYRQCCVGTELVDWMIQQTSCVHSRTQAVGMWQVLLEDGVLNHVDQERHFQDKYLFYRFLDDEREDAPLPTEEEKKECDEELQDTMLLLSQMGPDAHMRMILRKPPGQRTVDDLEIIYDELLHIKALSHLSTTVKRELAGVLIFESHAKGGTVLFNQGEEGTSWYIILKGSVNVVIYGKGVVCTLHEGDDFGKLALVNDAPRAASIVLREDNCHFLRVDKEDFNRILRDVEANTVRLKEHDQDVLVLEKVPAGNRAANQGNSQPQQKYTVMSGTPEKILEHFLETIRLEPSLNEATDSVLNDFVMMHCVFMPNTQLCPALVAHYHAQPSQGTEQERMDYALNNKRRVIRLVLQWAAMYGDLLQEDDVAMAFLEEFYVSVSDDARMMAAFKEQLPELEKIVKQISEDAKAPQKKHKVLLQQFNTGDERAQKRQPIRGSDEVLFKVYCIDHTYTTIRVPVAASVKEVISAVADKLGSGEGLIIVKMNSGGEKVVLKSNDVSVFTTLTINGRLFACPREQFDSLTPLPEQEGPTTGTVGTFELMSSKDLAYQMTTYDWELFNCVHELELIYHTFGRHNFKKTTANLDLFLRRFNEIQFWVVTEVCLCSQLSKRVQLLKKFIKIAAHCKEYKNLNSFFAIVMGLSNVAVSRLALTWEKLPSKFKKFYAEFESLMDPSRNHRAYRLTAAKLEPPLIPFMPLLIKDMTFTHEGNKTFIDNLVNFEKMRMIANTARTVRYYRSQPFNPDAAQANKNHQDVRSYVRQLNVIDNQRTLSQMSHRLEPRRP
Assay Text: Epac activation assay, full length Epac2
Format: biochemical
Set-up: made in house
Condition Details: Epac2^fl
Quantity: AC50

> print(dat)
                                   compound  quantity  reported.result
1  Nc1ncnc2c1nc(SCc1ccccc1)n2[C@@H]1O[C@@H]2CO[P@](O)(=S)O[C@H]2[C@H]1O      AC50           2.1 µM
2  CNc1nc2c(N)ncnc2n1[C@@H]1O[C@@H]2CO[P@](O)(=S)O[C@H]2[C@H]1O      AC50            10 µM
3  CO[C@H]1C2OP(O)(=S)OC[C@H]2O[C@H]1n1c(Br)nc2c(N)ncnc21 (stereo partly shown)      AC50          > 80 µM
4  CSc1nc2c(N)ncnc2n1[C@@H]1O[C@@H]2COP(=O)(O)O[C@H]2[C@H]1SC      AC50           110 µM

Data credit: paper PMC4300089
